B1: TFE3 (parent)
chain: ELPNIKREISETEAKALLKERQKK

variants of: B1; assay: protein stability index of a GFP-peptide fusion (GPS, HEK-293T) (PSI 1-6); higher = more stable; details: c terminus: a fixed tail appended;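 further: lentivirally expressed fusions sorted by FACS into six bins by GFP to DsRed ratio, PSI derived from sequencing read proportions per bin multiplied by bin number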
The entries below come with measured protein stability index values attached.
Form: value (number only, do not type unit).

Field: example entries. Status: answers known.
For reference, reported protein stability index for S10V stands at 3.62

For reference, reported protein stability index for E8P stands at 4.31

Continuing:
For reference, reported protein stability index for K6G stands at 2.81

For reference, reported protein stability index for E8D stands at 2.69

For reference, reported protein stability index for T12F stands at 3.78
